src = patent US20140056903A1

- target system: T1, monkey GFRα3 expressed with a C-terminal myc-myc-hexahistidine tag (monkey (Mf), UniProt O60609 32-374 (human entry), limits assumed)
- T1 construct: also called MfGFRα3-mmh; MfGFRα3-mmH
- T1 chain: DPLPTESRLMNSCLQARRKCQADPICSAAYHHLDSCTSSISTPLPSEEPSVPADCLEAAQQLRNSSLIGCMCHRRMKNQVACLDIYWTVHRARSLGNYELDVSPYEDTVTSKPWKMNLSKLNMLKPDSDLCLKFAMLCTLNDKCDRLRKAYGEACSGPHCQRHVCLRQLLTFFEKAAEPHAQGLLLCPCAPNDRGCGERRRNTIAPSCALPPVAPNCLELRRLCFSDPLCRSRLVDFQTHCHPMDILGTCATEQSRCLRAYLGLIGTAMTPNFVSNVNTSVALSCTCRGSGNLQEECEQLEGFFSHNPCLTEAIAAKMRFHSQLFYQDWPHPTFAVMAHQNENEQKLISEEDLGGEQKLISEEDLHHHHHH
- method notes: SPR, Ab captured, 37C
I'd appreciate it if you could supply pKd values for the items below.
pKd field: float, defined as -log10 of concentration (mol/L).

Query (binder): H4H2292S (antibody, human IgG4, V domains shown, human IgG4 Fc (H4H)) VH: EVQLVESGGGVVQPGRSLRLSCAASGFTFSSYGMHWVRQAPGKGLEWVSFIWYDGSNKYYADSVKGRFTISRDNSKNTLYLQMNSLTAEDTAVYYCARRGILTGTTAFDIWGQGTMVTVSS VL: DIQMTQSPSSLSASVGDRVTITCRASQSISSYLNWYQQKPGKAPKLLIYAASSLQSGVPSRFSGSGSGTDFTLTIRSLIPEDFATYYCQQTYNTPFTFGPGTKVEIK ; field requested: pKd
8.66

Look at this binder and give its reported pKd. H4H2291S (antibody, human IgG4, V domains shown, human IgG4 Fc (H4H)) VH: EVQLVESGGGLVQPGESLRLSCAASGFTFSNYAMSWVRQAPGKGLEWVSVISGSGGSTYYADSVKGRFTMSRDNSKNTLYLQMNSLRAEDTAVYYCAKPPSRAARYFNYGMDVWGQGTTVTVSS VL: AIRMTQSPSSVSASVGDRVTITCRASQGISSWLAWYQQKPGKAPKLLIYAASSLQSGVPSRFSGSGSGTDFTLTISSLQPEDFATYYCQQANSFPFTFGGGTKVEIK
8.71

I would be grateful if you could share the reported pKd for H4H2357S (antibody, human IgG4, V domains shown, human IgG4 Fc (H4H)) VH: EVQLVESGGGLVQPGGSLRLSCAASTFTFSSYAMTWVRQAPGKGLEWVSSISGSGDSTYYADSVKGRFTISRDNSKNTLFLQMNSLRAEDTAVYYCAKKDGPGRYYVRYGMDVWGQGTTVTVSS VL: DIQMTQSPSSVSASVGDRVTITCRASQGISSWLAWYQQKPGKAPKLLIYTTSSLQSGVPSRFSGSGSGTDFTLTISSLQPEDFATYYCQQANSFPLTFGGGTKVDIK .
8.10

Which measured pKd value corresponds to H1M2236N (antibody, V domains shown, chimeric, human variable and mouse constant domains (H1M)) VH: EVQLLESGGNLVQPGGSLRLSCAASGFTFSSYAMTWVRQAPGKGLEWVSTISGSGTSTYYADSVKGRFTISRDNSRDTVFLQMNSLRAEDTAVYYCSKPSALRFLHWLCMDVWGQGTLVTVSS VL: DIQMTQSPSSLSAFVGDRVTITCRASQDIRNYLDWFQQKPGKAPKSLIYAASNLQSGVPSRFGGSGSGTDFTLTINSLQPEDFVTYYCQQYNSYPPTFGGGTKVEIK ?
8.59

Could you share which pKd value was measured for H4H2295S (antibody, human IgG4, V domains shown, human IgG4 Fc (H4H)) VH: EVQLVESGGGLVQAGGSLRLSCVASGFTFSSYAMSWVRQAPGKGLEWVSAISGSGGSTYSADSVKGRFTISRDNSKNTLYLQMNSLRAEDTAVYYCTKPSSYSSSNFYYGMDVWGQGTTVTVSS VL: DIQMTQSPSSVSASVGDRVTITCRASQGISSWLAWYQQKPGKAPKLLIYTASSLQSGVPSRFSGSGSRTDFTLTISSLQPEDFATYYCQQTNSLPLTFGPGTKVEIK ?
7.69

Which pKd value belongs to H4H2346S (antibody, human IgG4, V domains shown, human IgG4 Fc (H4H)) VH: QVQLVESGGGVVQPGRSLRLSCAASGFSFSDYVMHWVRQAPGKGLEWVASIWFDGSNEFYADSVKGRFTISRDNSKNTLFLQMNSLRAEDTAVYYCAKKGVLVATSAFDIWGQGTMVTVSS VL: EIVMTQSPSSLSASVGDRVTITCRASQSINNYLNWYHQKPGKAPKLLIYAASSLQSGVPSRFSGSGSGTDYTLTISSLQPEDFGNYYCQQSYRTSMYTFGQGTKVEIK ?
8.48

Requested field: pKd. Item: H4H2344S (antibody, human IgG4, V domains shown, human IgG4 Fc (H4H)) VH: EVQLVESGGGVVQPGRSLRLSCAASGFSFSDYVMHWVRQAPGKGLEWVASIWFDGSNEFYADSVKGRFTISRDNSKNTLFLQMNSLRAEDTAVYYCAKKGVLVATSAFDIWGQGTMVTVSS VL: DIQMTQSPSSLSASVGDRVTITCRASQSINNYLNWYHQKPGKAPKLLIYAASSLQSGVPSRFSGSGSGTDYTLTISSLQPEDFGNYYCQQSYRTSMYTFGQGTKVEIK
8.45

I have this binder here, H4H2293P (antibody, human IgG4, V domains shown, human IgG4 Fc (H4H)) VH: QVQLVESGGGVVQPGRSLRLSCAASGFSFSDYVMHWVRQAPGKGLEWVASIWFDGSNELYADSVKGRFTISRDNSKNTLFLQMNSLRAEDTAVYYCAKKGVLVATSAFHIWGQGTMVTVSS VL: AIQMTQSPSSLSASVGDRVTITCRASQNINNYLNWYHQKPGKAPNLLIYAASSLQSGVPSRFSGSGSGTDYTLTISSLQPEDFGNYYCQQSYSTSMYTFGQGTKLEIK , and I need its recorded pKd.
9.45

Looking for the measured pKd of H4H2342P (antibody, human IgG4, V domains shown, human IgG4 Fc (H4H)) VH: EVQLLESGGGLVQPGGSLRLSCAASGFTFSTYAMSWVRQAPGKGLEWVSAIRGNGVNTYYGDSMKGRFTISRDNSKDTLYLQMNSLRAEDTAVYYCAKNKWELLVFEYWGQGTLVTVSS VL: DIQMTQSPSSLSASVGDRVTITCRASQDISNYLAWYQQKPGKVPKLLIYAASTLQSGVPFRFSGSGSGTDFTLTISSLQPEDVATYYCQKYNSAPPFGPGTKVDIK , can you help?
7.95

What does the data say about its pKd? Entry: H4H2364S (antibody, human IgG4, V domains shown, human IgG4 Fc (H4H)) VH: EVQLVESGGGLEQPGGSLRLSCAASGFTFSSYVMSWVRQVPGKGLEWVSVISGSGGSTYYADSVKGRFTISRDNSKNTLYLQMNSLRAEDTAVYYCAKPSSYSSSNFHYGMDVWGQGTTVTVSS VL: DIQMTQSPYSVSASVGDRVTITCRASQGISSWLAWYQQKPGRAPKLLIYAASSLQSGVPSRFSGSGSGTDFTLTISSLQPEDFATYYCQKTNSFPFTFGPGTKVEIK
8.29

// query pKd value for entry H1M2243N (antibody, V domains shown, chimeric, human variable and mouse constant domains (H1M)) VH: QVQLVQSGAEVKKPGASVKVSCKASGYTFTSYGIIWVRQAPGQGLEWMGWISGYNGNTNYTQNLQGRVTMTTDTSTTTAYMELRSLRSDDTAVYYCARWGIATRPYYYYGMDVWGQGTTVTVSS VL: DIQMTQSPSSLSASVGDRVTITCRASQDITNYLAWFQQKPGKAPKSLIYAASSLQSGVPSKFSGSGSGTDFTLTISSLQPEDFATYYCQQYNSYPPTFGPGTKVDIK
7.26
